These measurements were taken from PubChem BioAssay (EPA / NIEHS).

- testTarget: Retinoic acid receptor RXR-alpha (Homo sapiens) (UniProt P19793)
- Sequence (P19793 whole entry, looked up): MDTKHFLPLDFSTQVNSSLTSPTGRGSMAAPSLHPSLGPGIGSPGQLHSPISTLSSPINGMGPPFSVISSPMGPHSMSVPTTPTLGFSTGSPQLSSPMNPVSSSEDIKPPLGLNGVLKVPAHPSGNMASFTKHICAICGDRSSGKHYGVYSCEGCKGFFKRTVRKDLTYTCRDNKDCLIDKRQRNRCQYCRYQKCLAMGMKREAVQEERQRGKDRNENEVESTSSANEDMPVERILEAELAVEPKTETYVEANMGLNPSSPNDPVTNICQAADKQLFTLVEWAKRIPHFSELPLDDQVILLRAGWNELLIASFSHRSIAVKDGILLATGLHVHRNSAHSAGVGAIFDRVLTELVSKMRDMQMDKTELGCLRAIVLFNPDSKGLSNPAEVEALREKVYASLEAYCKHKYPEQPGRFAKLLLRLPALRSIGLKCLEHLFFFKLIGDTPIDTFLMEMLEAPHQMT
- protocolDescription: ATG_RXRa_TRANS: Attagene TRANS-FACTORIAL HepG2 Assay for human Retinoid X Receptor alpha (RXRa) (AID 2283012)
Results filed as inconclusive are left out. The source made the active and inactive calls. Rule for the calls: active = hit-call score of the fitted dose curve at least 0.9, where 1 is the maximum; inconclusive = response in the unintended direction; inactive = score below 0.9.
experimentalEndpoint: outcome

| compound | experimentalEndpoint | measuredResult |
| --- | --- | --- |
| ClC1C(Cl)C(Cl)C(Cl)C(Cl)C1Cl (centres undefined) | outcome | inactive |
| CCOC1Oc2ccc(OS(C)(=O)=O)cc2C1(C)C (centres undefined) | outcome | inactive |
| N#Cc1c(Cl)c(Cl)c(Cl)c(C#N)c1Cl | outcome | inactive |
| OCCOc1ccccc1 | outcome | inactive |
| CC(C)OC(=O)Nc1cccc(Cl)c1 | outcome | inactive |
| CC[C@H](C)[C@H]1O[C@]2(C=C[C@@H]1C)C[C@@H]1C[C@@H](C/C=C(\C)[C@@H](O[C@H]3C[C@H](OC)[C@@H](O[C@H]4C[C@H](OC)[C@@H](O)[C@H](C)O4)[C@H](C)O3)[C@@H](C)/C=C/C=C3\CO[C@@H]4[C@H](O)C(C)=C[C@@H](C(=O)O1)[C@]34O)O2 (tested in a mixture with another compound) | outcome | inactive |
| CC(C)(C)C(O)/C(=C\c1ccc(Cl)cc1Cl)n1cncn1 (centres undefined) | outcome | inactive |
| O=[N+]([O-])/N=C1\NCCN1Cc1ccc(Cl)nc1 | outcome | inactive |
| COC(=O)c1ccccc1CS(=O)(=O)NC(=O)Nc1nc(OC)cc(OC)n1 | outcome | inactive |
